system: SNB-19; experiment: NCI tumour cell line growth inhibition, 48 h
Active and inactive are the calls of the source. Cut-off read from the data, not from the text of the source: active = GI50 up to about 1.1 µM and inactive = higher. Where a SMILES comes first, the peptide text is derived from it. [ ]: non-standard residue; d: D form. The star is where a group is joined. Phe(2-OMe) = COc1ccccc1C[CH](N)C(=O)O; Cbz = O=C(OCc1ccccc1)*; OBn = c1ccc(CO*)cc1
# GI50 listing for each entry below

compound	GI50
O=C(NCCNCCNC(=O)C(F)(F)F)C(F)(F)F	> 100 µM (inactive)
COC(=O)/C=C(\C(=O)OC)c1c2c3c(cc(OC)c(OC)c3c3ccccc13)CCN2C	35.5 µM (inactive)
Nc1cccc(Nc2nc3ccccc3nc2NS(=O)(=O)c2ccccc2)c1	19.5 µM (inactive)
COc1cc(O)c2c(=O)cc(-c3ccc(O)cc3O)oc2c1CC=C(C)C [ARTOCARPETIN A]	18.3 µM (inactive)
CC1=CC(C)(C)[C@H]2O[C@@]3(O)C[C@]4(C)[C@H]5C[C@@](C(C)C)(O[C@H]4c4ccoc4)O[C@H]4[C@]5(C3)O[C@@]1(O)[C@]24O	45.4 µM (inactive)
COC(=O)C(Cc1ccccc1OC)NC(=O)C(CC(=O)OCc1ccccc1)NC(=O)OCc1ccccc1 (stereo not drawn) (Cbz-Asp(OBn)-[Phe(2-OMe)]-OMe; configuration not given here)	> 100 µM (inactive)
O=C(Cn1c2ccc(Br)cc2c2nc3ccccc3nc21)NC1CCCCC1	> 100 µM (inactive)
N#Cc1c2c(c(N3CCOCC3)n3c1nc1ccccc13)CCCC2	16.6 µM (inactive)

====

test system: SNB-75; assay: NCI tumour cell line growth inhibition, 48 h
The source made the active and inactive calls. Rule as the data show it: active = GI50 up to about 1.1 µM and inactive = higher.
value.kind: GI50

> print(dat)
                                   molecule      observed.result
1                 CC(C)(C)/N=N/C(C)(C)N=C=O  > 100 µM (inactive)
2  Cn1c(=O)c2nc(CCCCc3nc4c(=O)n(C)c(=S)n(C)c4[nH]3)[nH]c2n(C)c1=S   23.4 µM (inactive)
3      COC(=O)/C(C#N)=C1\NN=NN1c1ccc(OC)cc1  > 100 µM (inactive)
4  CN1c2ccccc2N(C(=O)c2ccccc2)C(CC(=O)O)c2cccn21 (stereo unspecified)  > 100 µM (inactive)
5  O=C(Cc1c(C(=O)Nc2ccccc2)sc(C(=O)Nc2ccccc2)c1CC(=O)Nc1ccccc1)Nc1ccccc1  > 100 µM (inactive)
6  O=C1C(Cl)N(c2cccc(Cl)c2)C1c1c[nH]c2ccccc12 (stereo unspecified)  > 100 µM (inactive)

====

# GI50 listing for each entry below
test system: SK-MEL-28; assay: NCI tumour cell line growth inhibition, 48 h
Active and inactive are the calls of the source. Rule as the data show it: active = GI50 up to about 1.1 µM and inactive = higher.
value.kind: GI50

> print(dat)
                                   molecule      observed.result
1  COC(=O)OCC1OC(N2C(=O)NC(=O)C(I)C2N=[N+]=[N-])CC1OC(=O)OC (stereo unspecified)  > 100 µM (inactive)
2  CC(C)/C=N\N1C(N)=C(C#N)C(C#N)(C#N)C1C(C)C (stereo unspecified)     47 µM (inactive)
3             CNCCCNC1(c2cc3ccccc3s2)CCCCC1   1.64 µM (inactive)
4        O=C(/C=C/c1cccc2ccccc12)c1ccccc1Cl   19.1 µM (inactive)
5  Cc1ccc(-c2cc(-c3ccco3)c(C#N)c(=S)[nH]2)cc1   20.8 µM (inactive)
6  C=C(C)[C@@H]1CCC2=C[C@H](CC(C)=CC3=CC(C)=C(O3)[C@@H]1OC)OC2=O  > 100 µM (inactive)
